test system: EKVX; assay: NCI tumour cell line growth inhibition, 48 h
Calls of active or inactive are those of the source. Rule as the data show it: active = GI50 up to about 1.1 µM and inactive = higher.
Would you mind telling me the reported GI50 of each entry?

Recorded GI50, per entry:
>>> df
                                   molecule         readout_value
0  COc1cccc(/C=C(\NC(C)=O)c2nc3cc(Cl)ccc3[nH]2)c1   > 100 µM (inactive)
1  Cc1ccc(Nc2nc(C)c(C(=O)CC(=O)C(=O)Nc3c(C)cccc3C(C)(C)C)s2)cc1   > 100 µM (inactive)
2  CC(C)(C)c1cc(C2COC(=O)COCC(=O)OCCOCCOCCO2)cc(C(C)(C)C)c1O (stereo not given)  > 75.7 µM (inactive)
3  O=C(c1cccs1)N(C(=S)OCCOc1ccccc1)c1ccccc1    29.5 µM (inactive)
4                 CN(C)/C(=N\C#N)NCc1ccccc1   > 100 µM (inactive)

Please supply GI50 for each of the following items, keeping them in order.
1. COc1c(Br)cc2c(c1OC)C(Br)CCC(Br)(Br)C2=O (stereo not given)
2. CCn1c2c(c3c(C(=O)OC)c(O)ccc31)C(=O)c1ccccc1C2=O
3. CCCCCCCCCCCCCCCCCC(=O)Nc1ccn(C2OC(CO)C(O)C2O)c(=O)n1 (stereo not given)
4. CC(CN(C)C)C(=O)/C=C/c1ccc(Cl)c(Cl)c1 (stereo not given)
5. C[C@@H](c1ccccc1)C(CC#N)[C@H]1CCC[C@]1(O)C#Cc1ccc2c(c1)OCO2 (stereo not given in full)

1. 3.93 µM (inactive)
2. 26 µM (inactive)
3. > 100 µM (inactive)
4. 1.7 µM (inactive)
5. 19.5 µM (inactive)
